Where these numbers come from: patent US20240301052A1

- MEASURED ON: T1, human SLC34A2 (human, UniProt O95436 1-690)
- T1 construct: whole, on cells; also called human solute carrier 34 A2; NaPi2b
- T1 sequence (looked up): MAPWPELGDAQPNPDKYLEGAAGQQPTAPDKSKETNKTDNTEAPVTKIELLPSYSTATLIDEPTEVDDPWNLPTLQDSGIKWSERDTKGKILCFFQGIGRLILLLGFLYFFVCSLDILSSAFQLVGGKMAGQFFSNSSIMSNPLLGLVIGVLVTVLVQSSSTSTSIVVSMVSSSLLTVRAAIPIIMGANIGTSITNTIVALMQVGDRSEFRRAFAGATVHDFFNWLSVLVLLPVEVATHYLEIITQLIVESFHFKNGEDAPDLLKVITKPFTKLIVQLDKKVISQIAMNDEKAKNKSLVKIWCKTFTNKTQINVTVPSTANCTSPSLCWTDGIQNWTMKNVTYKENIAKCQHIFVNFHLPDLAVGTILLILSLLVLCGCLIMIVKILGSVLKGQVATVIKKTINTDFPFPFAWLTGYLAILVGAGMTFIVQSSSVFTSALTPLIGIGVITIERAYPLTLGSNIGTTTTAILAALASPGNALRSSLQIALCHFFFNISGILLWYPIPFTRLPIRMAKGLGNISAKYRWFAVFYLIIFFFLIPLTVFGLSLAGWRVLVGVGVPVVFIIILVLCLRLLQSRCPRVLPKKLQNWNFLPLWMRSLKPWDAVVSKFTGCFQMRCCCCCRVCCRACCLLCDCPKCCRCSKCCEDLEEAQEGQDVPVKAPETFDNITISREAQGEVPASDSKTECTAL
- ASSAY INFO: FACS, HEK293/human SLC34A2 cells
MEASURED ENDPOINT: pEC50
Kindly note that pEC50 refers to -log10 of the concentration in mol/L and answer with the value alone.

// field: pEC50; key: xi94E9B12 hIgG1 (antibody, V domains shown, chimeric, hIgG1) VH: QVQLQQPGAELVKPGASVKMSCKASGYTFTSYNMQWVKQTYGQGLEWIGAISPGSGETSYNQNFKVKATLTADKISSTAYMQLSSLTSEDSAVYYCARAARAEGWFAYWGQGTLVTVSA VL: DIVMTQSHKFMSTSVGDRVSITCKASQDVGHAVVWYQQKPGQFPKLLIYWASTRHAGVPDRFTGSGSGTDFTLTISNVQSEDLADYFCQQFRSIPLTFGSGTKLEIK ; value = 8.61

// field: pEC50; key: xi87H12B7 hIgG1 (antibody, V domains shown, chimeric, hIgG1) VH: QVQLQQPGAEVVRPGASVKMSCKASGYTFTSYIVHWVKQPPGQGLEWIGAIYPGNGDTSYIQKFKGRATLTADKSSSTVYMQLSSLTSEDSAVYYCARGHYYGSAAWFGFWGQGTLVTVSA VL: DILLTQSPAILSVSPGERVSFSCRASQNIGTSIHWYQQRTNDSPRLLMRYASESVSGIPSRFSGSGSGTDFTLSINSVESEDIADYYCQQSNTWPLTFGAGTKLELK ; value = 8.79

// field: pEC50; key: xi28G3C6B9 hIgG1 (antibody, V domains shown, chimeric, hIgG1) VH: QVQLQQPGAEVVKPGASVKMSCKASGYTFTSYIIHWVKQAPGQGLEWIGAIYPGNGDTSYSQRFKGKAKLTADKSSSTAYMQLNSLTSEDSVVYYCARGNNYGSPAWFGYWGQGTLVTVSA VL: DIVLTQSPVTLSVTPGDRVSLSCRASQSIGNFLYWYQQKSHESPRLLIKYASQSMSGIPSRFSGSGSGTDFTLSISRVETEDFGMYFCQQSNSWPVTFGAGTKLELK ; value = 8.73
